# METHOD_NOTES: folding stability dG unfold (combined trypsin and chymotrypsin); higher = more stable
# key: entry, value: folding stability dG unfold

MONOMER_SEQUENCE	LT_GT_EQ	folding stability dG unfold (kcal/mol)
SAGGSAGGSSMPLLTKETSESYDPVNNTKTTTERIEEPGSGKFVFTKTTTTYPDGTVTTTLVESAGGSAGGS [r12_115_JUSTAS]	=	-0.652
SAGGELREKIEEAVEEAAKAGKPVVKTSEIEARLGRPLTPELLEYVREKGIIERDPKGSITITLPEDKSAGG [r13_188_JUSTAS]	<	-1
SKLKIEDIKWNPNYPGMYEFKIKLPDKPATIQIPHDPNNGRFMMEIWYPDKPVTVQFDSWDDALAFIKELSA [r9_366_TrROS]	=	1.52
SAGMGATLVSESEEEIDSSGVRKLTYRSPGSLLVETLYPDGTVPVYVIDPSTGKVVEERVFHVPPDVPLSAG [r14_676_JUSTAS]	=	0.204

====

# METHOD_NOTES: folding stability dG unfold from trypsin proteolysis; higher = more stable
Where folding stability dG unfold equals or exceeds 0.8 kcal/mol, the correct label is 1; where it does not, the label is 0.

MONOMER_SEQUENCE	ASSIGNED_LABEL
SAGGSAGDLELIGVFPFTLPDGRRITVPIFRDPSTGERYLFAETEGEEEDLTPAAIETALAVLERESAGGSA [r15_529_TrMRF]	1
SAGGSAGGSASIGGGPTGHSYKITLPNGTEKFLVMDPSTLKELIEKLGVKEVEVKDIGPLQSAGGSAGGSAG [r3_141_JUSTAS]	1
SAGGSAGGEPELNVLETLEETVDPNTGLTYTTELVQLPDGTLVTVKTLYDKATGTWTVLETTPESAGGSAGG [r6_262_JUSTAS]	1
SAMKVEKLEELPDKEILKVEATPEELRKIVEELAKANPGYEVSYKILEEEPIALITLTPIPKGPKENLVSAG [r14_600_JUSTAS]	1
SAGGGMSTYTITINIVIDPKEKKVPKPPLKDPFKLPPLKTIPITITAETSDPAVAAALEKAVKEALGLSAGG [r13_35_JUSTAS]	1
SAGGSAMAPNVRPIPIFIDVPAEPFTRDPDGRIGLTPEELARRLAEEIRARTGAPIDTIVVHFHEPSAGGSA [r15_415_TrMRF]	0
SAGGSAGGSGAEEIAKALKELGVKKVEITVERNENGELTVTVRVEVEAPPPKVEVKTEEELKKSAGGSAGGS [r12_246_TrROS_Hall]	0

====

# METHOD_NOTES: folding stability dG unfold from chymotrypsin proteolysis; higher = more stable
Output criterion met for folding stability dG unfold not less than 6 kJ/mol; output criterion not met otherwise.

MONOMER_SEQUENCE	ASSIGNED_LABEL
SAGGSAGGKLVLKIKIYNKKTKKVYEFEIEADSLEELKEALKKLGLPKDVKIVSVELRPLDEEPSAGGSAGG [r6_23_TrROS_Hall]	criterion met
KKTYTAEEIRKLAEKLGLEVPEGDLEIKVVFKDNKKTYTIKPGEEYTLEEILEKLKKEKPNIVKIEIKKKPS [r1_135_TrROS_Hall]	criterion met
SAGGSAGGSKMVLKVTLENGKTIEIEAGETIEEIKAKIEEEFGKPVKIKVEKVSAEELGLKPESAGGSAGGS [r12_379_TrROS_Hall]	criterion met
SAGMTTTLTKGEDGVTLTFDLPGQSVTLTVPVPPDVEVTTSFPATGTTITGTPVGDTLTITVTVPAPASAGG [r19_384_JUSTAS]	criterion met
SAGGSAGGSAGKPVTLTDANGTPYSVSQVTTDPNSATVTATFTSPTSSTTHTATYPVTPASAGGSAGGSAGG [r11_290_JUSTAS]	criterion not met
SAGGSMTAEELEGLPAEEIAELLPSDYTVSFIPETGLLVVEAPTRVVLATYNPAEGTVTLLEVRDASAGGSA [r2_470_TrMRF]	criterion not met
SAGGSAGGSAGGMLPFEVLEVTTSTGKGKTTRTVLAREPEGPEVVLTFSPASPEEIERLLSAGGSAGGSAGG [r7_365_JUSTAS]	criterion not met
SAGMKITVKAVLKKGEKEYEVEFEADSLEEIIGAILELYEKLNFDELRVKIKIGDKEYEIELPFLIPDESAG [r5_946_TrMRF]	criterion met
SAGGSALADRIAELARELGFEPVEIRYDPETGEVYALVRKPGGLLLRMRVEVDDDELHIEIEPLTDSAGGSA [r15_561_TrMRF]	criterion met
SAGGSAGGSAGGNPPDWKPVGEEEFPIPNPNGMQIKISVWTIRAPDDGKSASFIDIEMYPSAGGSAGGSAGG [r7_546_TrROS]	criterion met
SAGGSAGGSAGGMTLTITDDDPSVGPRTFTLTEPGSSKTTTLTSAEMEALKAAGPVTVAGSAGGSAGGSAGG [r7_452_JUSTAS]	criterion not met
SAGSYKLVVKAKAPKGPARIRVFVRLPGGEEKPVAEAEVGSGEVADIEITFPSGKPIDPKNIRVEIVPPSAG [r5_287_TrMRF]	criterion met
SAGGSAGGSMSEELLAEGPVRIRVRVRNKDGSVEEIEVEAGEEIELPEELKNQDVEIVSIEPVSAGGSAGGS [r12_161_TrROS_Hall]	criterion met
SAGGSAGGSAGGSVWIRMPPSKIKDLLDKFGIEPIEIEKMPPGWVYIRITPDALKEAGVFSAGGSAGGSAGG [r7_587_TrROS]	criterion not met
SAGGMIIIEGMSEEEIKNLIKEAIKKGEKVKKIVIRVNGKLYLITVDAKTKKITVEEIPLEELKKKKSAGGS [r16_481_TrROS_Hall]	criterion met
SAEKKVLVKVKIEVFNEDGELVEELELEVEMSAEEVKKKIKEELLKLLKEKYPDKPLTIKVEVEVKELPSAG [r14_570_TrROS_Hall]	criterion met
SNKIDKRIVSVTFYESLPNGSVKVNNLVFISTSDGKVRLVNAGEITIPLGDKTLSINIGEASSNVKLGKISA [r9_1113_TrMRF]	criterion met
SAGGSAGGSAGGLRAKIVEIKEVKVKKLYKDPETNEWYEEEKTVKVIKIKIEPAKPGEKISAGGSAGGSAGG [r17_530_TrROS_Hall]	criterion not met
SAGGSAGGSAGGKVSEIDLSGDKVVVTVKGPGGSVVREVHPDKTLEQVLDELLENPELVDSAGGSAGGSAGG [r7_373_TrMRF]	criterion met
SAGGKKKKKKKKKKKKKVKVRVRIVVENKNGEKKEIEIELKGLTLEELKKLAKELEKKGFKVKKIEIESAGG [r13_227_TrROS_Hall]	criterion met
SAGGSAGGSDMVLVTAPVDIPPNVKVEIKLKDGYETVSYDPESGRLVILVPANKLDEVLEAIKSAGGSAGGS [r12_476_TrMRF]	criterion met
SAGGSPARPVLVTITLPDGEEVTRRMTLEEIERLVAKDPNVKVTIELPDGSVYTVDPNTGTITKAPSAGGSA [r2_222_JUSTAS]	criterion met
SAGGSAGGSAGGMREVIRRPEASGEVTVEPLPEDERRPVDFGSDGVVLWREGDEVVVEPSAGGSAGGSAGGS [r10_817_JUSTAS]	criterion not met
SAGGSAGSYLVRVRIRRPEDGKELADAVFEVPPDEPVTAEAILKELGIPPEEAKNIEIEVEVFELGSAGGSA [r15_665_TrMRF]	criterion met
SAGGKKKKIEIEIVVKKEDLEKIAEELAKKLEEAGYKVKIKKIEVEVYKNKDGKIVYVKVRIEVEVEPSAGG [r13_707_TrROS_Hall]	criterion met
SAGGLKELLEALKEGNLEEALEALKKLGIEEVKIEIKPVVRVVITVEVPKEKVKVKVEVRVFLPEEELSAGG [r13_359_TrROS_Hall]	criterion not met
SAGGSAGGSMKITKTEEGVYLVEFTLPDGTPLVIPFPTDDPFLTEEQAVEIAKPIAAAFAAAGSAGGSAGGS [r12_642_TrMRF]	criterion not met
